The reader will find reported IC50 values listed item by item below.
molecular target: IDO1 (Homo sapiens); assay: IDO1 Cellular Assay in Hela Cells Stimulated with IFNγ; type: cell-based; conditions: IFNγ 100 ng/mL, 300 uM L-tryptophan, about 48 hours, fluorescence readout, read-out: IDO1 HELA Cell Assay, IC50
Sequence (P14902 whole entry): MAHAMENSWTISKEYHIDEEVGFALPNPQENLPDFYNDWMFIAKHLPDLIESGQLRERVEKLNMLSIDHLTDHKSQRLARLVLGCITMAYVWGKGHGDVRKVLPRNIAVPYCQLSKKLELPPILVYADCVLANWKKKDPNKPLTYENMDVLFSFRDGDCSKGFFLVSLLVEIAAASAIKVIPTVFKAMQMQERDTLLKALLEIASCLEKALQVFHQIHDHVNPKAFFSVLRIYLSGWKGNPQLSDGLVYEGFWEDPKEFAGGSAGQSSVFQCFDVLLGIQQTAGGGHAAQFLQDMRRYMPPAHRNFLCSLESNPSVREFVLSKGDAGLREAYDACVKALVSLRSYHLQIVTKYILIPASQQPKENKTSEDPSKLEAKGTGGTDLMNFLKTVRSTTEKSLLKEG
State just the number; it will be interpreted in nM.

{"columns": ["COMPOUND", "IC50 (nM)"],
 "data": [
  ["O=C(NC12CC(C3(NC(=O)c4ccc(F)cc4)CC3)(C1)C2)OCc1ccccc1 [Example 23]", 107],
  ["O=C(NC12CC(C3(C(=O)Nc4ccc(F)cc4)CCC3)(C1)C2)c1cccc(Cl)c1 [Example 3]", 6.29],
  ["Cc1ccc(C(=O)NC23CC([C@@H](C)C(=O)Nc4ccc(F)cc4)(C2)C3)cc1F [Example 41]", 405],
  ["C[C@H](C(=O)Nc1ccc(F)cc1)C12CC(NC(=O)c3ccc(Cl)c(F)c3)(C1)C2 [Example 47]", 152]
]}

// query IC50 for C[C@H](C(=O)Nc1ccc(F)cc1)C12CC(NC(=O)c3cccc(C(F)(F)F)n3)(C1)C2 [Example 152] ?
// result 34.8

// query IC50 for CCc1ccnc(C(=O)NC23CC(C(C)C(=O)Nc4ccc(F)cc4)(C2)C3)c1 (stereo not shown) [Example 117] ?
// result 73.5

// query Which value of IC50 has been reported for O=C(NC12CC(C3(C(=O)Nc4ccc(F)cc4)COC3)(C1)C2)c1cccc(Cl)c1 [Example 104] in the records?
// result 20.7

// query Fill in the blank: the reported IC50 of CC(C(=O)Nc1ccc(F)cc1)C12CC(NC(=O)c3ccn4ccccc34)(C1)C2 (stereo not shown) [Example 127] is ____.
// result 186
